# tgt: Zap1 (UniProt P47043)
# Sequence: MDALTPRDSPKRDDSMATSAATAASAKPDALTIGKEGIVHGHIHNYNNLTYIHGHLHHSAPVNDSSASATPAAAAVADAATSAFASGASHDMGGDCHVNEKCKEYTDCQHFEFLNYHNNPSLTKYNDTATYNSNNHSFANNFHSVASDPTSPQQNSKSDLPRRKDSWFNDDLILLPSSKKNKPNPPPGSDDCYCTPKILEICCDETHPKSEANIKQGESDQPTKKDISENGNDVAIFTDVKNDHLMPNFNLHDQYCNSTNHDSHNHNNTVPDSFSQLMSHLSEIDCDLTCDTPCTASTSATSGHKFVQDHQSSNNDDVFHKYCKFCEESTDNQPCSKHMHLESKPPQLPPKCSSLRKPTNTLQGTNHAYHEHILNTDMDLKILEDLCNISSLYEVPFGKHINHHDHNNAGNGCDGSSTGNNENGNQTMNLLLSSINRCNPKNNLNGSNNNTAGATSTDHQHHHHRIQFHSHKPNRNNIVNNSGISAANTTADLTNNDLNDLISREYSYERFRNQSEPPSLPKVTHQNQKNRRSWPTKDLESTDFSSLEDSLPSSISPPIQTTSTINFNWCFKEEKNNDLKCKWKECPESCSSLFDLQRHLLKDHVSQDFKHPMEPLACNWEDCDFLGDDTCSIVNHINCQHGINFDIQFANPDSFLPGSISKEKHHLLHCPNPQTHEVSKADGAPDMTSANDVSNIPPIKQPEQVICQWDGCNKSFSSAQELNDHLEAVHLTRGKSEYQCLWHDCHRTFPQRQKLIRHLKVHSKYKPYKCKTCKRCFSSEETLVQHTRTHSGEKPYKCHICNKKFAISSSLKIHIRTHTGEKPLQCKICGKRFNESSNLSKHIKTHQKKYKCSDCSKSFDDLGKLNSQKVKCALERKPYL
# procedure details: PBM E-score (8-mer binding enrichment) (E-score (-0.5 to 0.5)); higher = stronger / more preferred TF binding
# settings: protein concentration: 200 nM; construct: GST-full length
In all, about 33,000 sequences were measured (“E-score (-0.5 to 0.5)”: median about -0.021, highest 2% from about 0.32 on). The sample holds the highest values, similar sequences and a random draw of the others, so the mix is not that of the screen.
assay readout: PBM E-score

GCGTTGAC	-0.0667
ACTGCTAT	-0.0537
CAATTGAC	-0.0961
AAAAGGAT	0.0556
CACCCTCG	0.234
AGCACCCG	0.125
CGCCACTA	-0.111
AGTGCACG	-0.151
GATTTAGC	0.118
CACTTTAC	0.0657
CGTAACAA	0.201
AAGCCTGT	-0.128
ACCACCCA	0.252
CGCCCTAG	-0.00248
CAAGGCGC	-0.141
ACTATGAT	-0.00467
ACCCCCAC	-0.286
AAGCGGGC	-0.335
TCGCAACA	-0.0496
CGAGCGAA	-0.162
GCATAACA	0.0518
AAACGTAG	-0.0378
TACCAAAA	0.161
AACCCTAC	0.357
GCAATAGC	-0.122
AACCCCAA	0.377
AGTAACCG	0.355
AACCCCAC	0.344
ACCTTTAT	0.352
GGTAATAA	0.338
AAAAGGTG	0.173
ACCCCCAA	-0.0064
ATCTAGGC	-0.197
ACCACCCT	0.352
AGGGTTTC	0.232
CTCGCTTA	-0.0929
AGGAACCA	0.0162
AAGTTCAG	-0.0476
TCCGCGAA	0.05
AGTGGAAG	-0.204
CAACGCGC	0.0876
GACCCCTC	0.138
CCCCCTAC	-0.32
ACCCAAGA	0.152
GCATAAGC	-0.0977
GGGGCTTA	-0.25
AATCAAAG	0.0185
AGCTTTAT	-0.0486
GCCATCCA	-0.197
AGGGTGGG	0.334
AAACCTGT	0.0581
ACATAACC	0.454
ATTATACG	0.0915
AGCCCTAC	-0.12
AGCGATGG	-0.195
GGTGAACA	-0.231
ACCCAGCC	-0.139
ATTATACC	0.338
CGTGAAGC	-0.326
AGGGTGGC	0.293
CAAGTGTA	-0.0404
CTTGTTGA	0.124
CAAGGACA	-0.0888
ACCACCCC	-0.00264
ACATAACT	0.149
CCCTTTAA	0.286
ATCGGTTC	0.0913
GGTCCTAC	-0.105
GCCTTTAA	0.0959
ACCTTTTC	0.254
ACCTTTTG	0.364
ACCCCAAG	0.311
AAAAGGTC	0.367
ACCCCAAA	0.337
AACCCTGT	0.419
AGGTCTCC	0.00142
AGTAACTG	-0.154
GACCCTAC	0.311
AAAAGGTT	0.444
CAGTACTA	0.164
ACCTTTAC	0.307
AAACCTAC	0.194
CCCTTTAG	0.127
ATGAGAGA	-0.0163
AGAGCGTG	-0.169
AACCAAAA	0.364
CGGGTTGC	0.18
AAGCACTC	-0.146
AATTCGAG	-0.131
ACGTAAGC	-0.186
GCTTTGAC	0.0804
